biological target: T1, CD3D&E protein (Cat #: CT038-H2508H, Sino Biological) (human, UniProt P04234 22-105; P07766 23-126); assay: SPR (BIAcore 8K), antibody captured by anti-human Fc, CD3D&E as analyte
T1 construct: Bought complex of the delta and epsilon chains; also called CD3D&E complex; human CD3D&E complex
T1 sequence (P04234 22-105, form in doubt, chain 1 of 2): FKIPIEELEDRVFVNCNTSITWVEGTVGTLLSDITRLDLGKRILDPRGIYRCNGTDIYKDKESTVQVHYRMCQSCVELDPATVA
T1 sequence (P07766 23-126, form in doubt, chain 2 of 2): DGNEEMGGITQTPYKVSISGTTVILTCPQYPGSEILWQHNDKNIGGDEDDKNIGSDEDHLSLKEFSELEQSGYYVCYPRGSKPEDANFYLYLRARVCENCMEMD
ATTRIBUTE MEASURED: Kd (nM)
API: value field is a number in nM; no unit string.

anti-CD3D&E antibody D8E5, full-length human IgG1 (L234A/L235A/N297A)/kappa (antibody, V domains shown) VH: EVQLVESGGGLVQPGRSLRLSCAASGFTFDSYSMHWVRQAPGKGLEWVSGISWNSGSLGYADSVKGRFTISRDNAKKSLYLQMNSLRAEDTALYYCAKDRSGYGHYYYGMDVWGQGTTVTVAS VL: EIVMTQSPATLSVSPGERATLSCRASRSVSLNVAWYQQKPGQAPRLLIYGASTKYTGIPARFSGSGSGTEFTLTISSLQSEDFAVYYCQQYINWPLTFGGGTKVEIKR: 30

# get_value(readout='Kd', item= anti-CD3D&E antibody D1E9, full-length human IgG1 (L234A/L235A/N297A)/kappa (antibody, V domains shown) VH: EVQLVESGGGLVQPGRSLRLSCAASGFTFDDFAMHWVRQAPGKGLEWVSGITWNSGSVGYADSVKGRFTISRDNAKKSLYLQMNSLRAEDTALYYCAKDRSGYGHYYYGMDVWGQGTTVTVAS VL: EIVMTQSPATLSVSPGERATLSCRASTSVSHNVAWYQQKPGQAPRLLIYGASTKVTGIPARFSGSGSGTEFTLTISSLQSEDFAVYYCQHYINWPLTFGGGTKVEIKR )
120

Need Kd of anti-CD3D&E antibody 7-1A12, full-length human IgG1 (L234A/L235A/N297A)/kappa (antibody, V domains shown) VH: EVQLVESGGGLVQPGRSLRLSCAASGFTFSDYTMHWVRQAPGKGLEWVSGISWNTGTIGYADSVKGRFTISRDNAKKSLYLQMNSLRAEDTALYYCAKDNSGYGHYYFGMDVWGQGTTVTVAS VL: EIVMTQSPATLSVSPGERATLSCRASQSVSRNVAWYQQKPGQAPRLLIYGASTRQTGIPARFSGSGSGTEFTLTISSLQSEDFAVYYCQSYINWPLQFGGGTKVEIKR , thanks.
6.54

Reported Kd, binder anti-CD3D&E antibody D12A4, full-length human IgG1 (L234A/L235A/N297A)/kappa (antibody, V domains shown) VH: EVQLVESGGGLVQPGRSLRLSCAASGFTFGDYAMHWVRQAPGKGLEWVSGISWNHGHIGYADSVKGRFTISRDNAKKSLYLQMNSLRAEDTALYYCAKDNSGYGHYYYGMDVWGQGTTVTVAS VL: EIVMTQSPATLSVSPGERATLSCRASRSVSRNLAWYQQKPGQAPRLLIYGASTKPTGIPARFSGSGSGTEFTLTISSLQSEDFAVYYCQHYTNWPLRFGGGTKVEIKR : ____
357
